# target_or_system: α2β2γ1 GABAA receptor subtype (Homo sapiens (Human), UniProt P47869+Q8N1C3)
# assay_method_text: Two-electrode voltage clamp electrophysiology in Xenopus oocytes expressing GABAA receptors (modulation of GABA EC20 current)
# Format: cell-based
# test_parameters: Xenopus oocytes expressing α2β2γ1; compound at approx. 30-fold its Ki α2β2γ1; GABA EC20 current
# Description: Xenopus laevis oocytes at maturation stages V-VI were used for the expression of cloned mRNA encoding GABAA receptor subunits. Oocytes ready for RNA micro-injection were bought from Ecocyte, Castrop-Rauxel, Germany and stored in modified Barth's medium (composition in mM: NaCl 88, KCl 1, NaHCO3 2.4, HEPES 10, MgSO4 0.82, CaNO3 0.33, CaCl2 0.33, pH=7.5) at 20° C. until the experiment. […]
endpoint_name: Fold increase h-GABA-A α2β2γ1 oocyte @ 30-fold Ki
Form rule: numeric answer, no unit written next to it.

Solved cases (3 shown):
C[C@@H]1N=C(c2c(F)cccc2F)c2c(ccc(C(F)(F)F)c2Cl)-n2nc(C(=O)NCCF)nc21 [Example 106] ... 1.90
[2H]C([2H])([2H])OC1CN(C(=O)c2nc3n(n2)-c2ccc(C(F)(F)F)c(Cl)c2C(c2ncccc2F)=N[C@H]3C)C1 [Example 104] ... 2.17
C[C@@H]1N=C(c2c(F)cccc2F)c2c(ccc(Cl)c2Cl)-n2nc(NC(=O)N3CC(F)C3)nc21 [Example 57] ... 1.76

Consider the additional molecule presented here.
Measured Fold increase h-GABA-A α2β2γ1 oocyte @ 30-fold Ki of C[C@@H]1N=C(c2c(F)cccc2F)c2c(ccc(C(F)(F)F)c2Cl)-n2nc(NC(=O)N3CCS(=O)(=O)CC3)nc21 [Example 131] : 2.04

----------
Overview of reported pKi across a group of molecules:
# target_or_system: human GABAA α2β2γ1 receptor (Homo sapiens (Human), UniProt P47869+Q8N1C3)
# assay_method_text: Radioligand binding assay for γ1-containing GABAA subtypes, [3H]RO7239181 competition (α2β2γ1)
# test_parameters: Ki h-GABAA α2β2γ1, displacement of [3H]RO7239181, membranes of HEK293F cells expressing human receptors, means of two determinations
Units for pKi: none; it is -log10 of a concentration expressed in mol/L.

Solved cases (5 shown):
Cc1cn2c(n1)[C@H](C)N=C(c1c(F)cccc1F)c1c-2ccc(C(F)(F)F)c1Cl ... 7.99
C[C@@H]1N=C(c2c(F)cccc2F)c2c(ccc(Cl)c2Cl)-n2nc(C3COC3)nc21 ... 8.19
C[C@@H]1N=C(c2c(F)cccc2F)c2c(ccc(Cl)c2Cl)-n2nc(C(=O)N3CC[C@@H](F)C3)nc21 ... 8.21
C[C@H](O)CNC(=O)c1nc2n(n1)-c1ccc(Cl)c(Cl)c1C(c1c(F)cccc1F)=N[C@H]2C ... 8.37
C[C@@H]1N=C(c2c(F)cccc2F)c2c(ccc(Cl)c2Cl)-n2nc(N3CC(C#N)C3)nc21 ... 7.99

Measured pKi of C[C@@H]1N=C(c2ncccc2F)c2c(ccc(Cl)c2Cl)-n2nc(C(=O)N3CC[C@@H](F)C3)nc21 : 7.02

----------
# target_or_system: α2β2γ1 GABAA receptor subtype (Homo sapiens (Human), UniProt P47869+Q8N1C3)
# assay_method_text: Two-electrode voltage clamp electrophysiology in Xenopus oocytes expressing GABAA receptors (modulation of GABA EC20 current)
# Assay type: cell-based
# test_parameters: % modulation of GABA EC20 = 100*(Fold increase-1); α2β2γ1 oocytes; compound at approx. 30-fold Ki
The label depends only on Efficacy (GABA)%: Fulfilled if it is at least 70%, Not fulfilled if it is smaller.

The examples below pair each entry with its known result.
CC(=O)NCc1nc2n(n1)-c1ccc(Cl)c(Cl)c1C(c1c(F)cccc1F)=N[C@H]2C [Example 67] ... Not fulfilled
C[C@@H]1N=C(c2c(F)cccc2F)c2c(ccc(Cl)c2Cl)-n2nc(C(=O)NC[C@@H](C)O)nc21 [Example 65] ... Fulfilled
C[C@@H]1N=C(c2ncccc2F)c2c(ccc(C(F)(F)F)c2Cl)-n2nc(C(=O)N3CC4(CCO4)C3)nc21 [Example 119] ... Fulfilled
C[C@@H]1N=C(c2c(F)cccc2F)c2c(ccc(Cl)c2Cl)-n2cc(C(=O)N3CC(O)C3)nc21 [Example 68] ... Fulfilled

Hi, just wondering whether C[C@@H]1N=C(c2ncccc2F)c2c(ccc(C(F)(F)F)c2Cl)-n2cc(C(=O)N3CC(C(F)F)C3)nc21 [Example 156] shows Efficacy (GABA)% of 70% or higher.
Fulfilled

----------
# target_or_system: human GABAA α5β2γ1 receptor (Homo sapiens (Human), UniProt P31644+Q8N1C3)
# assay_method_text: Radioligand binding assay for γ1-containing GABAA subtypes, [3H]RO7239181 competition (α5β2γ1)
Threshold 5 nM: Ki strictly smaller gives 1, otherwise -1.

The examples below pair each entry with its known result.
COc1nc2n(n1)-c1ccc(Cl)c(Cl)c1C(c1c(F)cccc1F)=N[C@H]2C [Example 91] ... 1
C[C@@H]1N=C(c2c(F)cccc2F)c2c(ccc(Cl)c2Cl)-n2nc(C(=O)NCC#N)nc21 [Example 56] ... 1
CCNC(=O)c1nc2n(n1)-c1ccc(Cl)c(Cl)c1C(c1c(F)cccc1F)=N[C@H]2C [Example 64] ... 1
[2H]C([2H])([2H])OC1CN(C(=O)c2nc3n(n2)-c2ccc(C(F)(F)F)c(Cl)c2C(c2ncccc2F)=N[C@H]3C)C1 [Example 104] ... -1
C[C@@H]1N=C(c2c(F)cccc2F)c2c(ccc(Cl)c2Cl)-n2nc(C(=O)N3CC[C@H](O)C3)nc21 [Example 43] ... 1

Below 5 nM on Ki? Entry C[C@@H]1N=C(c2c(F)cccc2F)c2c(ccc(C(F)(F)F)c2Cl)-n2c1nc1c2CCC1 [Example 133]
-1

Below 5 nM on Ki? Entry C[C@@H]1N=C(c2ncccc2F)c2c(ccc(C(F)(F)F)c2Cl)-n2cc(C(=O)NCC3(O)CC3)nc21 [Example 164]
-1

Below 5 nM on Ki? Entry C[C@@H]1N=C(c2ncccc2F)c2c(ccc(Br)c2Cl)-n2nc(C(=O)N3CCC3)nc21 [Example 48]
1

----------
# target_or_system: human GABAA α5β2γ1 receptor (Homo sapiens (Human), UniProt P31644+Q8N1C3)
# assay_method_text: Radioligand binding assay for γ1-containing GABAA subtypes, [3H]RO7239181 competition (α5β2γ1)
endpoint_name: Ki (nM)
Your answer is read as nM, so omit the unit and give the number.

Solved cases (5 shown):
C[C@@H]1N=C(c2ncccc2F)c2c(ccc(Cl)c2Cl)-n2nc(C(=O)N3CC4(CCOCC4)C3)nc21 ... 20.2
C[C@@H]1N=C(c2ncccc2F)c2c(ccc(C(F)(F)F)c2Cl)-n2cc(C(=O)NC[C@@H](C)O)nc21 ... 13.4
C[C@@H]1N=C(c2c(F)cccc2F)c2c(ccc(Cl)c2Cl)-n2nc(C(=O)NC[C@@H](C)O)nc21 ... 0.5
C[C@@H]1N=C(c2c(F)cccc2F)c2c(ccc(C(F)(F)F)c2Cl)-n2nc(NC(=O)N3CC(F)C3)nc21 ... 4.2
Cc1nc2n(n1)-c1ccc(Cl)c(Cl)c1C(c1ncccc1F)=N[C@H]2C ... 2.8

Measured Ki of C[C@@H]1N=C(c2ncccc2F)c2c(ccc(Cl)c2Cl)-n2nc(C(=O)N3CC4(COC4)C3)nc21 : 6.83

Measured Ki of C[C@@H]1N=C(c2ncccc2F)c2c(ccc(C(F)(F)F)c2Cl)-n2nc(NC(=O)NC3COC3)nc21 : 7.2

Measured Ki of C[C@@H]1N=C(c2ncccc2F)c2c(ccc(C(F)(F)F)c2Cl)-n2cc(C(=O)NCC(C)(C)O)nc21 : 11.4

Measured Ki of C[C@@H]1N=C(c2c(F)cccc2F)c2c(ccc(Cl)c2Cl)-n2nc(C(=O)N3CC(F)C3)nc21 : 0.9

Measured Ki of C[C@@H]1N=C(c2ncccc2F)c2c(ccc(Cl)c2Cl)-n2nc(C(=O)N3CC4(CCOC4)C3)nc21 : 7.53

----------
Overview of reported Ki across a group of molecules:
# target_or_system: human GABAA α5β2γ1 receptor (Homo sapiens (Human), UniProt P31644+Q8N1C3)
# assay_method_text: Radioligand binding assay for γ1-containing GABAA subtypes, [3H]RO7239181 competition (α5β2γ1)
Your answer is read as nM, so omit the unit and give the number.

Solved cases (2 shown):
Cc1cnc2n1-c1ccc(C(F)(F)F)c(Cl)c1C(c1c(F)cccc1F)=N[C@H]2C ... 2.63
C[C@@H]1N=C(c2c(F)cccc2F)c2c(ccc(C(F)(F)F)c2Cl)-n2nc(C(=O)NCCO)nc21 ... 2.5

Measured Ki of C[C@@H]1N=C(c2ncccc2F)c2c(ccc(Cl)c2Cl)-n2nc(C(=O)N3CCC3)nc21 : 4.24

Measured Ki of C[C@@H]1N=C(c2c(F)cccc2F)c2c(ccc(Cl)c2Cl)-n2nc(CO)nc21 : 0.6

Measured Ki of C[C@@H]1N=C(c2c(F)cccc2F)c2c(ccc(Cl)c2Cl)-n2cc(C(=O)N3CC(O)C3)nc21 : 1.48

Measured Ki of C[C@@H]1N=C(c2c(F)cccc2F)c2c(ccc(Cl)c2Cl)-n2nc(N3CCCC3=O)nc21 : 0.89

Measured Ki of C[C@@H]1N=C(c2ncccc2F)c2c(ccc(Cl)c2Cl)-n2nc(C(=O)NC3CC3)nc21 : 10.1

Measured Ki of COC1CN(C(=O)c2cn3c(n2)[C@H](C)N=C(c2ncccc2F)c2c-3ccc(C(F)(F)F)c2Cl)C1 : 18.4

Measured Ki of C[C@@H]1N=C(c2c(F)cccc2F)c2c(ccc(Cl)c2Cl)-n2nc(C(F)F)nc21 : 0.69

Values were extracted from patent US12365687B2.
